src = ChEMBL document CHEMBL1139641

# Target of assay: GABA B receptor (Rattus norvegicus) (UniProt Q9Z0U4+O88871)
# Measurement description: Percent displacement of [3H]GABA (1 mM) from Gamma-aminobutyric acid B receptor of rat cerebellum
# Type: tissue-based
// inhibition lookup, one value per entry

- Compound: "O=C(O)CCCOc1ccccc1"
  Unit tag: "%"
  inhibition: 6.5
- Compound: "O=C(O)Cc1cccc(OCCCc2ccccc2)c1"
  Unit tag: "%"
  inhibition: 6
- Compound: "O=C(O)Cc1cccc(OCc2ccccc2)c1"
  Unit tag: "%"
  inhibition: -4.7
- Compound: "O=C(O)Cc1cccc(O)c1 [3-Hydroxyphenylacetate]"
  Unit tag: "%"
  inhibition: 14
- Compound: "O=C(O)Cc1cccc(Oc2ccccc2)c1"
  Unit tag: "%"
  inhibition: -5.5
- Compound: "O=C(O)CCCO"
  Unit tag: "%"
  inhibition: 41.1
- Compound: "O=C(O)Cc1cccc(OCCc2ccccc2)c1"
  Unit tag: "%"
  inhibition: -1.2
